Let's look at some molecules and their measured IC50.
target: Aβ(1-42) amyloid fibrils (Homo sapiens); construct: Aβ(1-42) amyloid fibrils; experiment: ^3H-AZD2184 competition binding to Aβ(1-42) fibrils in vitro; settings: [^3H]-AZD2184, Aβ(1-42) amyloid fibrils; average if run more than once
MEASURED_PARAMETER: IC50 (nM)

INSERT INTO results (molecule, tested_system, assay_value) VALUES
  ('Oc1ccc2[nH]c(-c3cnc(N4CCC(CF)CC4)nc3)cc2c1 [Compound 69]', 'Aβ(1-42) amyloid fibrils (Homo sapiens)', 169),
  ('FCCOCCOCCOC1CCN(c2ccc(-c3nc4ccccc4s3)cn2)CC1 [Compound 6]', 'Aβ(1-42) amyloid fibrils (Homo sapiens)', 3),
  ('N#Cc1ccc2nc(-c3cnc(N4CCC(CCO)CC4)nc3)sc2c1 [Compound 40]', 'Aβ(1-42) amyloid fibrils (Homo sapiens)', 70);

----------
target: 0N4R Tau fibrils (Homo sapiens); experiment: ^3H-THK5117 competition binding to tau fibrils in vitro; settings: 3 nM [^3H]-THK5117, recombinant 0N4R tau fibrils; average if run more than once
pIC50: −log10 of the molar value.
MEASURED_PARAMETER: pIC50

INSERT INTO results (test_smiles, tested_system, measured_parameter, assay_value) VALUES
  ('OCCC1CCN(c2ccc(-c3nc4ccccc4s3)cn2)CC1', '0N4R Tau fibrils (Homo sapiens)', 'pIC50', 8.15),
  ('COc1ccc2nc(-c3cnc(N4CCC(CCF)CC4)nc3)cn2c1', '0N4R Tau fibrils (Homo sapiens)', 'pIC50', 7.85),
  ('FCCCCOCC1CCN(c2ccc(-c3nc4ccccc4s3)cn2)CC1', '0N4R Tau fibrils (Homo sapiens)', 'pIC50', 7.96),
  ('OCC1CCN(c2ccc(-c3cc4cc(O)cnc4[nH]3)c(F)n2)CC1', '0N4R Tau fibrils (Homo sapiens)', 'pIC50', 7.85),
  ('FCCC1CCN(c2ccc(-c3nc4ccccc4o3)cn2)CC1', '0N4R Tau fibrils (Homo sapiens)', 'pIC50', 7.89),
  ('OCCOC1CCN(c2ncc(-c3cc4ccccc4o3)cn2)CC1', '0N4R Tau fibrils (Homo sapiens)', 'pIC50', 7.82),
  ('OCCC1CCN(c2ccc(-c3cc4ccccc4o3)cn2)CC1', '0N4R Tau fibrils (Homo sapiens)', 'pIC50', 8.15),
  ('OCCC1CCN(c2ncc(-c3cc4ccccc4o3)cn2)CC1', '0N4R Tau fibrils (Homo sapiens)', 'pIC50', 8.00),
  ('CS(=O)(=O)OCCC1CCN(c2ccc(-c3nc4ccccc4o3)cn2)CC1', '0N4R Tau fibrils (Homo sapiens)', 'pIC50', 7.77);

----------
Parameter: IC50. Scope: all listed entries.
molecular target: 0N4R Tau fibrils (Homo sapiens); test: ^3H-THK5117 competition binding to tau fibrils in vitro; settings: 3 nM [^3H]-THK5117, recombinant 0N4R tau fibrils; average if run more than once
MEASURED_PARAMETER: IC50 (nM)

INSERT INTO results (test_smiles, tested_system, assay_value) VALUES
  ('COc1ccc2nc(-c3ccc(N4CCC(CCOCCOCCOCCF)CC4)nc3)sc2c1', '0N4R Tau fibrils (Homo sapiens)', 4),
  ('OCC1CCN(c2ccc(-c3cc4cc(OCCF)ccc4[nH]3)cn2)CC1', '0N4R Tau fibrils (Homo sapiens)', 14),
  ('CS(=O)(=O)OCCC1CCN(c2ncc(-c3nc4ccc(C(N)=O)cc4s3)cn2)CC1', '0N4R Tau fibrils (Homo sapiens)', 15);

----------
biological target: Aβ(1-42) amyloid fibrils (Homo sapiens, UniProt P05067); construct: Aβ(1-42) amyloid fibrils; assay: ^3H-AZD2184 competition binding to Aβ(1-42) fibrils in vitro; details: [^3H]-AZD2184, Aβ(1-42) amyloid fibrils; average if run more than once
Sequence (P05067 672-713): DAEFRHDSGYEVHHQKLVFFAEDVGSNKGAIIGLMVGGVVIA
A collection of compounds and their measured IC50
MEASURED_PARAMETER: IC50 (µM)

INSERT INTO measurements (compound, unit_of_measurement, assay_value) VALUES
  ('OCC1CCN(c2ccc(-c3nc4ccc(OCCF)cc4s3)cn2)CC1 [Compound 56]', 'µM', 0.003),
  ('NC(=O)C1CCN(c2ccc(-c3cc4cc(O)ccc4[nH]3)c(F)n2)CC1 [Compound 66]', 'µM', 0.272),
  ('OCCC1CCN(c2ccc(-c3cc4ccccc4o3)cn2)CC1 [Compound 27]', 'µM', 0.034),
  ('NC(=O)c1ccc2nc(-c3cnc(N4CCC(CCF)CC4)nc3)sc2c1 [Compound 43]', 'µM', 0.072);

----------
IC50 values, listed per item
biological target: 0N4R Tau fibrils (Homo sapiens, UniProt P10636); assay: ^3H-THK5117 competition binding to tau fibrils in vitro; conditions: 3 nM [^3H]-THK5117, recombinant 0N4R tau fibrils; average if run more than once
Sequence (P10636 1-383 isoform P10636-6): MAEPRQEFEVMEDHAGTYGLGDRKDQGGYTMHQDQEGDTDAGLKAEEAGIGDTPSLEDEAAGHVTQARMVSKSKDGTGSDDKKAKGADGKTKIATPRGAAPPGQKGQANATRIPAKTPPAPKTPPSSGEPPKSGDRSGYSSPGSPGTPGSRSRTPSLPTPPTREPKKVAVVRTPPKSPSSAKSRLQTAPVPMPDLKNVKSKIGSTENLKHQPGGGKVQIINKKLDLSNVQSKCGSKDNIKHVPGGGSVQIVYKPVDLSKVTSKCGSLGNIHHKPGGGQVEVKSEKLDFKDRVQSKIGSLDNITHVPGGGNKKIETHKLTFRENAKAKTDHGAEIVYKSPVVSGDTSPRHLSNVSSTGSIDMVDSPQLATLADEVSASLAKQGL
MEASURED_PARAMETER: IC50 (nM)

INSERT INTO results (test_smiles, unit_of_measurement, assay_value) VALUES
  ('COc1ccc2nc(-c3ccc(N4CCC(OCCO)CC4)nc3)sc2c1', 'nM', 4),
  ('N#Cc1ccc2nc(-c3cnc(N4CCC(CCO)CC4)nc3)sc2c1', 'nM', 6),
  ('CCOC(=O)c1ccc2nc(-c3cnc(N4CCC(CCO)CC4)nc3)sc2c1', 'nM', 5),
  ('CCOC(=O)C1CCN(c2ccc(-c3cc4cc(O)ccc4[nH]3)c(F)n2)CC1', 'nM', 2),
  ('FCCC1CCN(c2ncc(-c3cc4ccccc4o3)cn2)CC1', 'nM', 12);
